molecular target: MAO A (Mus musculus, UniProt Q64133); experiment: Binding affinity to MAO A in mouse brain homogenate, [18F]fluoroethyl harmine competition; conditions: 18F-FEH competition
Sequence (Q64133 whole entry): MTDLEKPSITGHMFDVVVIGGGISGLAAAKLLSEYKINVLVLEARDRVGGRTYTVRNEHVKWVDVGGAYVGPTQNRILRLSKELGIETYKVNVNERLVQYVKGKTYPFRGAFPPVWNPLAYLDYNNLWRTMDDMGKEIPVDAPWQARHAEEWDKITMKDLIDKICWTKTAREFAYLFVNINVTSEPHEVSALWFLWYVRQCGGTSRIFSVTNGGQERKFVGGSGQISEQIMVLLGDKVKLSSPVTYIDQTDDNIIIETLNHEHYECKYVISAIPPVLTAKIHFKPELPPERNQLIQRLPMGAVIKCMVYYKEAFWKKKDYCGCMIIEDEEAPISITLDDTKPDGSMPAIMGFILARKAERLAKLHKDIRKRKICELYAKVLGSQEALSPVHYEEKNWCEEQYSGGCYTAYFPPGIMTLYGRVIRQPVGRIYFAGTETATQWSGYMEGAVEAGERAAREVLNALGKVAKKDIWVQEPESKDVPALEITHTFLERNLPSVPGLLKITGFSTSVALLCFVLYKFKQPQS
recorded endpoint: log10(IC50) (log10 of the value in nM)
Values reflect log10 of reported IC50 (nM).

Example compounds with recorded log10(IC50):
substance smiles	log10(IC50)
Nc1cc(-c2ccc3c(n2)[nH]c2ccncc23)ccc1F	1.40
Fc1ccc(-c2ccc3c(n2)[nH]c2ccncc23)c(F)n1	2.85
N#Cc1ccc(-c2ccc3c(n2)[nH]c2ccncc23)cc1F	2.26

Quick one: give me log10(IC50) for each item below, same order please.
1. N#Cc1cc(-c2ccc3c(n2)[nH]c2ccncc23)ccc1F
2. Fc1nccc(-c2ccc3c(n2)[nH]c2ccncc23)c1F

Solution:
1. 2.18
2. 2.92

----------
target: MAO A (Mus musculus); construct: from tissue; host or cells: mouse brain homogenate; assay: Binding affinity to MAO A in mouse brain homogenate, [18F]fluoroethyl harmine competition
recorded endpoint: Low affinity to MAO A (mouse homogenate)

substance smiles	Low affinity to MAO A (mouse homogenate)
Fc1cnc(F)c(-c2ccc3c(n2)[nH]c2ccncc23)c1	+++
Fc1cc(-c2ccc3c(n2)[nH]c2ccncc23)cc(F)n1	+++
Fc1nccc(-c2ccc3c(n2)[nH]c2ccncc23)c1F	+++
Fc1ccc(-c2ccc3c(n2)[nH]c2ccncc23)c(F)n1	+++
N#Cc1ccc(-c2ccc3c(n2)[nH]c2ccncc23)cc1F	++
Fc1cc(-c2ccc3c(n2)[nH]c2ccncc23)c(F)cn1	+++
Nc1cc(-c2ccc3c(n2)[nH]c2ccncc23)ccc1F	+
Fc1nccc(-c2ccc3c(n2)[nH]c2ccncc23)c1Cl	+++

Now examine the next entry.
Problem: Would you kindly share the measured Low affinity to MAO A (mouse homogenate) for `N#Cc1cc(-c2ccc3c(n2)[nH]c2ccncc23)ccc1F` ?
Solution: ++
